- Tested on: Staphylococcus aureus MRSA ATCC 43300 biofilm
- procedure summary: Biofilm minimum inhibitory concentration (Biofilm MIC), crystal violet OD590
- Format: cell-based
- condition notes: first biological replicate, two technical replicates; ≥70% inhibition OD590
measured property: Biofilm MIC (TSB + 5% Gluc) 07/112/18 (µg/mL)
One number for each entry, in µg/mL.

These recorded examples may help you get a feel for the data.
compound	unit of measure	Biofilm MIC (TSB + 5% Gluc) 07/112/18
CN[C@H](CC(C)C)C(=O)N[C@H]1C(=O)N[C@@H](CC(N)=O)C(=O)N[C@H]2C(=O)N[C@H]3C(=O)N[C@H](C(=O)N[C@H](C(=O)O)c4cc(O)cc(O)c4-c4cc3ccc4O)[C@H](O)c3ccc(c(Cl)c3)Oc3cc2cc(c3O[C@@H]2O[C@H](CO)[C@@H](O)[C@H](O)[C@H]2O[C@H]2C[C@](C)(N)[C@H](O)[C@H](C)O2)Oc2ccc(cc2Cl)[C@H]1O	µg/mL	4
C=C(C)C1CCC(C)=CC1c1c(O)cc(CCCCC)cc1O (stereo not shown)	µg/mL	4

Consider the record given below.
Q: Which Biofilm MIC (TSB + 5% Gluc) 07/112/18 reading was recorded for the compound COc1cc(Cc2cnc(N)nc2N)cc(OC)c1OC ?
A: 8

====

- procedure summary: Protein binding inferred from loss of activity in 50% human serum
- Assay type: in vitro ADME
- condition notes: assuming 3% free responsible for activity
measured property: fraction unbound

Q: Which fraction unbound reading was recorded for the compound C=C(C)C1CCC(C)=CC1c1c(O)cc(CCCCC)cc1O (stereo not shown) ?
A: < 0.03
